# subject_of_test: TARP γ8 dependent AMPA receptor (GRIA1o-CACNG8 fusion construct) (Homo sapiens (Human), UniProt P42261+Q8WXS5)
# Sequence (P42261 other isoform, or with tags, fused parts or gaps): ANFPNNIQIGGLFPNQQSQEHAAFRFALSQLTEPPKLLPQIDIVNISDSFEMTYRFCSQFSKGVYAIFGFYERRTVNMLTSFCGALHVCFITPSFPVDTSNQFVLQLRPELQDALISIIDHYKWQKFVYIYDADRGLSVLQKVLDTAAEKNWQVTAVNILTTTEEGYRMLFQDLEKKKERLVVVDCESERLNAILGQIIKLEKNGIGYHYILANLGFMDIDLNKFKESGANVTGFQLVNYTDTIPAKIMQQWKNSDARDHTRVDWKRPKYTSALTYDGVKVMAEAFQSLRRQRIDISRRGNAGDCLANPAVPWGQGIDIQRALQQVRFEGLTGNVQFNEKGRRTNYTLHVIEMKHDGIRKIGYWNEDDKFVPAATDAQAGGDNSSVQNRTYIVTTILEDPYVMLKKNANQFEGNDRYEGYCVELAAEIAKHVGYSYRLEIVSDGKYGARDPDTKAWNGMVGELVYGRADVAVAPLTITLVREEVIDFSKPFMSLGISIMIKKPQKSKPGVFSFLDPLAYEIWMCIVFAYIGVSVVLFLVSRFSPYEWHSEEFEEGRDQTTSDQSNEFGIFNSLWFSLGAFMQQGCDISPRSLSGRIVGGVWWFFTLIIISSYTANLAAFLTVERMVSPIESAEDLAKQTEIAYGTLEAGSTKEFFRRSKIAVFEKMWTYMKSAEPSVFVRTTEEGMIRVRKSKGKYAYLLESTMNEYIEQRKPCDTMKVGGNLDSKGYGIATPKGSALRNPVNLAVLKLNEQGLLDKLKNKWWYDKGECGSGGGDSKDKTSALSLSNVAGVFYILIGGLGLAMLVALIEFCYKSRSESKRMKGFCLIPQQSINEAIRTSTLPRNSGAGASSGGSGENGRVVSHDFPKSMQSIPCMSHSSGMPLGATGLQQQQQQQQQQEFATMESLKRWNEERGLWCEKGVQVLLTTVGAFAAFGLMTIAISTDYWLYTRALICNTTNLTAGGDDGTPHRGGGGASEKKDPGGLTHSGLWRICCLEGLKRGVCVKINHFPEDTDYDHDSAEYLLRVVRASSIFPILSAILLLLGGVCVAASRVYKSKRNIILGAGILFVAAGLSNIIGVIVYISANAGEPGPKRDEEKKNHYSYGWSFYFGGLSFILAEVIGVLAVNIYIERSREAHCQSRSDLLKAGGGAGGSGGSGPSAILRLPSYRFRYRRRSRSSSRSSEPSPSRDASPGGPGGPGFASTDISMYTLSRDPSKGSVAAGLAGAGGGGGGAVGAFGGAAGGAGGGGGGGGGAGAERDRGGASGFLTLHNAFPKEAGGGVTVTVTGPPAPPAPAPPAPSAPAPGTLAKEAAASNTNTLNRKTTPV
# assay_remarks: Calcium flux assay (FLIPR), inhibition of glutamate response of GluA1o-γ8 channel
# experimental_conditions: HEK293 cells stably expressing GRIA1o-CACNG8 fusion; calcium flux after 15 μM glutamate; negative log of the IC50 in molar
measured_property: IC50 (nM)

smiles_representation | IC50 (nM)
Cc1cc(C(F)F)c(-c2cc(Cl)c3[nH]ncc3c2)n2nc(C3CC3)nc12 | 0.1
Cc1cc(C(F)(F)F)c(-c2cc(C#N)c3c(c2)CC(=O)N3)n2nc(C(F)(F)F)nc12 | 3.98
Cc1cc(C(F)F)c(-c2cc(Cl)c3[nH]ncc3c2)n2nc(C(F)(F)F)cc12 | 0.1
COc1cc(-c2c(C(F)(F)F)ccc3nc(C(F)F)nn23)cc2c1NC(=O)C2 | 5.01
Cc1cc(-c2c(C(F)F)ccc3nc(C(F)(F)F)nn23)cc2c1NC(=O)C2 | 0.631

[A] CCc1cc(C(F)F)c(-c2cc(C)c3[nH]ncc3c2)n2nc(C(F)(F)F)nc12
[B] Cc1cc(-c2c(C(F)(F)F)ccc3cc(C4CC4)nn23)cc2cn[nH]c12
Of A and B , which shows the smaller IC50 value? Please respond with the label that marks your chosen entry.
B

----------
# subject_of_test: TARP γ8 dependent AMPA receptor (GRIA1o-CACNG8 fusion construct) (Homo sapiens (Human), UniProt P42261+Q8WXS5)
# assay_remarks: Calcium flux assay (FLIPR), inhibition of glutamate response of GluA1o-γ8 channel
# Type: cell-based
# experimental_conditions: HEK293 cells stably expressing GRIA1o-CACNG8 fusion; calcium flux after 15 μM glutamate; negative log of the IC50 in molar
pIC50: −log10 of the molar value.
measured_property: pIC50

smiles_representation | pIC50
FC(F)c1ccc2nc(C3CC3)nn2c1-c1cc(Cl)c2[nH]ncc2c1 | 9.70

[a] Cc1cc(-c2c(C(F)(F)F)cc(F)c3nc(C4CC4)nn23)cc2cn[nH]c12
[b] Cc1cc(-c2c(C(F)(F)F)ccc3cc(C(F)(F)F)nn23)cc2cn[nH]c12
Among a and b , whose measured pIC50 is the smaller figure? Mark your selection by writing its label.
a
(a: 9.70, b: 10.80)

----------
# subject_of_test: TARP γ8 dependent AMPA receptor (GRIA1o-CACNG8 fusion construct) (Homo sapiens (Human), UniProt P42261+Q8WXS5)
# assay_remarks: Calcium flux assay (FLIPR), inhibition of glutamate response of GluA1o-γ8 channel
# experimental_conditions: HEK293 cells stably expressing GRIA1o-CACNG8 fusion; calcium flux after 15 μM glutamate; negative log of the IC50 in molar
pIC50: −log10 of the molar value.
measured_property: pIC50

[A] Cc1cc(-c2c(C(F)F)cc(C)c3nc(C4CC4)nn23)cc2cn[nH]c12 [Example 114]
[B] Cc1cc(-c2c(C(F)(F)F)cc(C)c3nc(C4CC4)nn23)cc2cn[nH]c12 [Example 76]
[C] COc1ccc2nc(C(F)(F)F)nn2c1-c1cc(Cl)c2[nH]ncc2c1 [Example 50]
[D] O=C1Cc2cc(-c3c(C(F)(F)F)ccc4cc(C5CC5)nn34)cc(Cl)c2N1 [Example 68]
Rank the compounds listed above in increasing order of pIC50. Answer by writing out the labels in the requested order.
C, A, B, D

----------
# subject_of_test: TARP γ8 dependent AMPA receptor (GRIA1o-CACNG8 fusion construct) (Homo sapiens (Human), UniProt P42261+Q8WXS5)
# assay_remarks: Calcium flux assay (FLIPR), inhibition of glutamate response of GluA1o-γ8 channel
# experimental_conditions: HEK293 cells stably expressing GRIA1o-CACNG8 fusion; calcium flux after 15 μM glutamate; negative log of the IC50 in molar
# Method: This assay was used to test compounds for their ability to inhibit TARP γ8 dependent AMPA receptor activity. The AMPA receptor is a non-selective cation channel activated by glutamate. […] Cell expressing the GRIA1o-CACNG8 fusion construct were grown in a monolayer in 96- or 384-well microtiter plates. […] Calcium flux following the addition of 15 μM glutamate was monitored using a Molecular Devices FLIPR Tetra. […]
pIC50: −log10 of the molar value.
measured_property: pIC50

[I] Cc1cc(-c2c(-c3ccc(F)cc3)ccc3nc(C4CC4)nn23)cc2cn[nH]c12
[II] Cc1cc(-c2c(C(F)(F)F)ccc3nc(C(F)F)nn23)cc2cn[nH]c12
[III] Cc1cc(-c2c(C(F)(F)F)ccc3nc(C(F)F)nn23)cc2c1NC(=O)C2
List from greatest to least pIC50. Write the labels out in the order the request specifies.
I, II, III
(I: 9.90, II: 9.40, III: 9.10)
